Test details: Inhibition of yeast alpha-glucosidase using p-nitrophenyl-alpha-d-glucopyranoside as substrate preincubated with enzyme followed by substrate addition measured after 30 mins
Parameters: species or system Saccharomyces cerevisiae
Below, each entry is listed with its recorded IC50.
Value type: IC50

>>> df
                                test_smiles         result
0  CC1=NN(c2ccc([N+](=O)[O-])cc2)C(=O)/C1=C/c1cn(-c2ccccc2)nc1-c1cc2ccccc2oc1=O  2.1 to 289 µM
1  CC1=NN(c2ccc(C)cc2)C(=O)/C1=C/c1cn(-c2ccccc2)nc1-c1cc2ccccc2oc1=O  2.1 to 289 µM
2  CC1=NN(c2ccc([N+](=O)[O-])cc2)C(=O)/C1=C/c1cn(-c2ccccc2)nc1-c1ccc(-c2ccccc2)cc1  2.1 to 289 µM
